Substrate: CC(=O)Oc1ccc([N+](=O)[O-])cc1
Assay: purified protein
Type: biochemical, Pelagibacterium halotolerans
Conditions: 100 mM Tris-HCl pH 7.5, 30 °C, 0.05-4 mM substrate in acetonitrile
Listed next: entries and their corresponding kcat.
Use s⁻¹ as the unit, but write only the number.

Worked cases, answers included:
PE8 (Pelagibacterium halotolerans B2; V172A) (protein, 6xHis fusion from pET28b in E. coli Rosetta (DE3), Ni-NTA and SEC; monomer; catalytic triad Ser118, Asp169, His201) MTEPVKLSGPMLPAVSGAAKSLVVLLHGYGSDGRDLIALGQFWRDSFPDTMFVAPNAPHVCGGNPFGYEWFPLDLERDRTLARLAGAETAHPVLDAFLADLWAQTGLGPADTILVGFSQGAMMALYTGLRLPEPLKAIIAFSGLIVAPEKLEAEIASKPPVLLIHGDLDDVAPVIGSETALPKLIDLGIDARLHISQGSGHTIAQDGLDTATAFLREIL; 35
PE8 (Pelagibacterium halotolerans B2; M122A) (protein, 6xHis fusion from pET28b in E. coli Rosetta (DE3), Ni-NTA and SEC; monomer; catalytic triad Ser118, Asp169, His201) MTEPVKLSGPMLPAVSGAAKSLVVLLHGYGSDGRDLIALGQFWRDSFPDTMFVAPNAPHVCGGNPFGYEWFPLDLERDRTLARLAGAETAHPVLDAFLADLWAQTGLGPADTILVGFSQGAAMALYTGLRLPEPLKAIIAFSGLIVAPEKLEAEIASKPPVLLIHGDLDDVVPVIGSETALPKLIDLGIDARLHISQGSGHTIAQDGLDTATAFLREIL; 40

Okay, now this protein:
The measured kcat associated with PE8 (Pelagibacterium halotolerans B2) (protein, 6xHis fusion from pET28b in E. coli Rosetta (DE3), Ni-NTA and SEC; monomer; catalytic triad Ser118, Asp169, His201) MTEPVKLSGPMLPAVSGAAKSLVVLLHGYGSDGRDLIALGQFWRDSFPDTMFVAPNAPHVCGGNPFGYEWFPLDLERDRTLARLAGAETAHPVLDAFLADLWAQTGLGPADTILVGFSQGAMMALYTGLRLPEPLKAIIAFSGLIVAPEKLEAEIASKPPVLLIHGDLDDVVPVIGSETALPKLIDLGIDARLHISQGSGHTIAQDGLDTATAFLREIL reads 30
